- Tested on: Streptococcus sp.
- ASSAY METHOD TEXT: In vitro antibacterial evaluation: minimum inhibitory concentration (MIC), broth dilution method
- Type: cell-based
- ASSAY CONTEXT: Streptococcus agalactiae (GC 4564); broth dilution, 18 hours at 35° C.
Numbered stars: 1 amine (or outer) side, 2 acyl side, 3 side chain; on linkers, the order of the positions; unused ones are H or OH. Square brackets hold non-standard residues; d marks the D form. Peptide text beside a SMILES is read from it. ξ: configuration not given here. X1 = N=C1NCC(C(O)C(N[*:1])C(=O)[*:2])N1C1OC(CO)C(O)C(O)C1O; ξEnduracididine(βξ-OH,4'ξ) = N=C1NCC(C(O)C(N)C(=O)O)N1; Cha = N[CH](CC1CCCCC1)C(=O)O
Measured MIC Streptococcus agalactiae (GC 4564) of individual entries
OBSERVED PROPERTY: MIC Streptococcus agalactiae (GC 4564)

INSERT INTO measurements (molecule, observed_measurement) VALUES
  ('CC(c1ccccc1)C1NC(=O)CNC(=O)C(CO)NC(=O)C(C(O)C2CN(Cc3ccccc3)C(=NCc3ccccc3)N2C2OC(CO)C(O)C(O)C2O)NC(=O)C(C(O)C2CN(Cc3ccccc3)C(=NCc3ccccc3)N2Cc2ccccc2)NC(=O)C(Cc2ccc(OC3OC(CO)C(OC4OC5COC6(OC5C(O)C4O)C4CC5CC(C4)CC6C5)C(O)C3O)cc2)NC1=O (stereo not shown)', '4 µg/mL'),
  ('CC(c1ccccc1)C1NC(=O)CNC(=O)C(CO)NC(=O)C(C(O)C2CNC(=N)N2C2OC(CO)C(O)C(O)C2O)NC(=O)C(C(O)C2CNC(=N)N2)NC(=O)C(Cc2ccc3oc(C=C(c4ccccc4)c4ccccc4)nc3c2)NC1=O (stereo not shown)', '16 µg/mL'),
  ('CC(c1ccccc1)C1NC(=O)CNC(=O)C(CO)NC(=O)C(C(O)C2CNC(=N)N2C2OC(CO)C(O)C(O)C2O)NC(=O)C(C(O)C2CNC(=N)N2)NC(=O)C(Cc2ccc3oc(-c4cccc([N+](=O)[O-])c4)nc3c2)NC1=O (stereo not shown)', '16 µg/mL'),
  ('CC(c1ccccc1)C1NC(=O)CNC(=O)C(CO)NC(=O)C(C(O)C2CNC(=N)N2C2OC(CO)C(O)C(O)C2O)NC(=O)C(C(O)C2CNC(=N)N2)NC(=O)C(Cc2ccc3oc(-c4ccc(N(C)C)cc4)nc3c2)NC1=O (stereo not shown)', '32 µg/mL'),
  ('N=C1NCC(C(O)C2NC(=O)C(CC3CCCCC3)NC(=O)C(CC3CCCCC3)NC(=O)CNC(=O)C(CO)NC(=O)C(C(O)C3CNC(=N)N3C3OC(CO)C(O)C(O)C3O)NC2=O)N1 (stereo not drawn) [Example 52] (cyclo(G[Cha][Cha][ξEnduracididine(βξ-OH,4''ξ)][X1]S); configuration not given here)', '8 µg/mL'),
  ('CC(c1ccccc1)C1NC(=O)CNC(=O)C(CO)NC(=O)C(C(O)C2CNC(=N)N2C2OC(CO)C(O)C(O)C2O)NC(=O)C(C(O)C2CNC(=N)N2)NC(=O)C(Cc2ccc3oc(-c4ccc(OCc5ccccc5)cc4)nc3c2)NC1=O (stereo not shown)', '32 µg/mL'),
  ('CC(c1ccccc1)C1NC(=O)CNC(=O)C(CO)NC(=O)C(C(O)C2CNC(=N)N2C2OC(CO)C(O)C(O)C2O)NC(=O)C(C(O)C2CNC(=N)N2)NC(=O)C(Cc2ccc3oc(SCc4ccc5ccccc5c4)nc3c2)NC1=O (stereo not shown)', '8 µg/mL'),
  ('CCCCCCN=C1NCC(C(O)C2NC(=O)C(C(O)C3CNC(=N)N3)NC(=O)C(Cc3ccc(OC4OC(CO)C(OC5OC6COC7(OC6C(O)C5O)C5CC6CC(C5)CC7C6)C(O)C4O)cc3)NC(=O)C(C(C)c3ccccc3)NC(=O)CNC(=O)C(CO)NC2=O)N1C1OC(CO)C(O)C(O)C1O (stereo not shown)', '1 µg/mL'),
  ('CC(c1ccccc1)C1NC(=O)CNC(=O)C(CO)NC(=O)C(C(O)C2CN(Cc3ccc4ccccc4c3)C(=N)N2C2OC(CO)C(O)C(O)C2O)NC(=O)C(C(O)C2CNC(=N)N2)NC(=O)C(Cc2ccc(OC3OC(CO)C(OC4OC5COC6(OC5C(O)C4O)C4CC5CC(C4)CC6C5)C(O)C3O)cc2)NC1=O (stereo not shown)', '1 µg/mL'),
  ('CCCCCCCN1CC(C(O)C2NC(=O)C(C(O)C3CNC(=N)N3)NC(=O)C(Cc3ccc(OC4OC(CO)C(OC5OC6COC7(OC6C(O)C5O)C5CC6CC(C5)CC7C6)C(O)C4O)cc3)NC(=O)C(C(C)c3ccccc3)NC(=O)CNC(=O)C(CO)NC2=O)N(C2OC(CO)C(O)C(O)C2O)C1=N (stereo not shown)', '0.25 µg/mL'),
  ('CC(c1ccccc1)C1NC(=O)CNC(=O)C(CO)NC(=O)C(C(O)C2CN(c3nc4ccccc4s3)C(=N)N2C2OC(CO)C(O)C(O)C2O)NC(=O)C(C(O)C2CNC(=Nc3nc4ccccc4s3)N2)NC(=O)C(Cc2ccc(OC3OC(CO)C(OC4OC(CO)C(O)C(O)C4O)C(O)C3O)cc2)NC1=O (stereo not shown)', '>64 µg/mL'),
  ('CC(c1ccccc1)C1NC(=O)CNC(=O)C(CO)NC(=O)C(CC2CNC(=N)N2C2OC(CO)C(O)C(O)C2O)NC(=O)C(CC2CNC(=N)N2)NC(=O)C(Cc2ccc3oc(-c4ccc5c(c4)Cc4ccccc4-5)nc3c2)NC1=O (stereo not shown)', '8 µg/mL'),
  ('CC(c1ccccc1)C1NC(=O)CNC(=O)C(CO)NC(=O)C(CC2CN(Cc3ccccc3)C(=N)N2C2OC(CO)C(O)C(O)C2O)NC(=O)C(CC2CNC(=N)N2)NC(=O)C(Cc2ccc(OC3OC(CO)C(OC4OC5COC6(OC5C(O)C4O)C4CC5CC(C4)CC6C5)C(O)C3O)cc2)NC1=O (stereo not shown)', '8 µg/mL'),
  ('CC(c1ccccc1)C1NC(=O)CNC(=O)C(CO)NC(=O)C(C(O)C2CNC(=N)N2C2OC(CO)C(O)C(O)C2O)NC(=O)C(C(O)C2CNC(=N)N2)NC(=O)C(Cc2ccc3oc(SCc4ccccc4)nc3c2)NC1=O (stereo not shown)', '16 µg/mL'),
  ('CC(c1ccccc1)C1NC(=O)CNC(=O)C(CO)NC(=O)C(C(O)C2CNC(=N)N2C2OC(CO)C(O)C(O)C2O)NC(=O)C(C(O)C2CNC(=N)N2)NC(=O)C(Cc2ccc(O)c(NC(=S)Nc3cc(C(F)(F)F)cc(C(F)(F)F)c3)c2)NC1=O (stereo not shown)', '>64 µg/mL'),
  ('COc1cc(-c2nc3cc(CC4NC(=O)C(C(C)c5ccccc5)NC(=O)CNC(=O)C(CO)NC(=O)C(C(O)C5CNC(=N)N5C5OC(CO)C(O)C(O)C5O)NC(=O)C(C(O)C5CNC(=N)N5)NC4=O)ccc3o2)cc(OC)c1OC (stereo not shown)', '32 µg/mL');
